# tgt: Histamine H1 receptor (Homo sapiens, UniProt P35367)
# Sequence (P35367 whole entry): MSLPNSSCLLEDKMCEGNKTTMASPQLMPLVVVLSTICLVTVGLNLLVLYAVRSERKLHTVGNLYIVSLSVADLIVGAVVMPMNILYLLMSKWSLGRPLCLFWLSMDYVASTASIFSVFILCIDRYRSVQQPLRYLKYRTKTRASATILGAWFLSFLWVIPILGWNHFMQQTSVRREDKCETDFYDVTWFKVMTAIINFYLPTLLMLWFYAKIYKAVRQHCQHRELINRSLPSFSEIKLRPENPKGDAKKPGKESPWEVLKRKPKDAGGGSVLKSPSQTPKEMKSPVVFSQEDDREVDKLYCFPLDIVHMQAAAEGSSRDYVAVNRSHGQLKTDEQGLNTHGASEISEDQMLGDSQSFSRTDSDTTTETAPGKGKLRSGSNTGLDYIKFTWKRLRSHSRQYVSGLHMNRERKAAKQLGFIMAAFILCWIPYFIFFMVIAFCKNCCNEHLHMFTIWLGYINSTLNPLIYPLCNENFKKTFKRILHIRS
reported-endpoint: pKi
Kindly note that pKi refers to -log10 of the concentration in mol/L and answer with the value alone.

Request: Give its pKi value. Item: CC1=CC(C)=[N+]2C1=C(c1ccc(OCCCN3CCCCC3)cc1)c1c(C)cc(C)n1[B-]2(F)F [BODILISANT]
Result: 5.78

----------
# tgt: Histamine H4 receptor (Homo sapiens, UniProt Q9H3N8)
# Sequence (Q9H3N8 whole entry): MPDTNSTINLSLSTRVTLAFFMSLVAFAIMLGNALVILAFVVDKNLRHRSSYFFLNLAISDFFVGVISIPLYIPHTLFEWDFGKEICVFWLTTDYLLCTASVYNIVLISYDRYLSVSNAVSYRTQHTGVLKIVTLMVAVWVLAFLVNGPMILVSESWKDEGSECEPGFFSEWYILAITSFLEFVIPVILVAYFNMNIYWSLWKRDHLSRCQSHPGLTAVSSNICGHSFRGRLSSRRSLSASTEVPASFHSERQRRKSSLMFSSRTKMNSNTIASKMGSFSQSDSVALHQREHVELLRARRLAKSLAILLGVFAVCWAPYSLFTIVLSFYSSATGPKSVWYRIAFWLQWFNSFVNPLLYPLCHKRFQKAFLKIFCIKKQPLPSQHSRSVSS
reported-endpoint: pKi
Kindly note that pKi refers to -log10 of the concentration in mol/L and answer with the value alone.

Request: Notebook: pull reported pKi for Histamine H4 receptor (Homo sapiens, UniProt Q9H3N8), entry CC1=CC(C)=[N+]2C1=C(c1ccc(OCCCN3CCCCC3)cc1)c1c(C)cc(C)n1[B-]2(F)F
Result: 5.13

----------
# tgt: D(1A) dopamine receptor (Homo sapiens)
# Sequence (P21728 whole entry): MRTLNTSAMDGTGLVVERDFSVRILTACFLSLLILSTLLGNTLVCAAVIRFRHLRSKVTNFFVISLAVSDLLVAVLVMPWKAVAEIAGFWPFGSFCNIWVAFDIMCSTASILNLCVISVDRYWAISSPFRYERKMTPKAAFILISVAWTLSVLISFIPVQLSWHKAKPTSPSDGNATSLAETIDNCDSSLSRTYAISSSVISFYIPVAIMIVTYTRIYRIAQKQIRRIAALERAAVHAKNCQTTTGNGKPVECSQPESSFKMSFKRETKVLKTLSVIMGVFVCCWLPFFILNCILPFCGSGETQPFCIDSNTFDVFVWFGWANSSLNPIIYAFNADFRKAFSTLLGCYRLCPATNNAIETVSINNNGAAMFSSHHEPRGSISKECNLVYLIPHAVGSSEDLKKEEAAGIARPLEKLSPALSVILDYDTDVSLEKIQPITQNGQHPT
# assay-remarks: Displacement of [3H]SCH23390 from human dopamine D1 receptor expressed in HEK cells
# Format: cell-based, HEK293
reported-endpoint: Ki (µM)
Numeric answer only, unit µM assumed.

Request: Give its Ki value. Item: CC1=CC(C)=[N+]2C1=C(c1ccc(OCCCN3CCCCC3)cc1)c1c(C)cc(C)n1[B-]2(F)F
Result: 12.5

----------
reported-endpoint: pKi
Kindly note that pKi refers to -log10 of the concentration in mol/L and answer with the value alone.

Request: Notebook: pull reported pKi for UniProt P14416, entry CC1=CC(C)=[N+]2C1=C(c1ccc(OCCCN3CCCCC3)cc1)c1c(C)cc(C)n1[B-]2(F)F
Sequence (P14416 whole entry): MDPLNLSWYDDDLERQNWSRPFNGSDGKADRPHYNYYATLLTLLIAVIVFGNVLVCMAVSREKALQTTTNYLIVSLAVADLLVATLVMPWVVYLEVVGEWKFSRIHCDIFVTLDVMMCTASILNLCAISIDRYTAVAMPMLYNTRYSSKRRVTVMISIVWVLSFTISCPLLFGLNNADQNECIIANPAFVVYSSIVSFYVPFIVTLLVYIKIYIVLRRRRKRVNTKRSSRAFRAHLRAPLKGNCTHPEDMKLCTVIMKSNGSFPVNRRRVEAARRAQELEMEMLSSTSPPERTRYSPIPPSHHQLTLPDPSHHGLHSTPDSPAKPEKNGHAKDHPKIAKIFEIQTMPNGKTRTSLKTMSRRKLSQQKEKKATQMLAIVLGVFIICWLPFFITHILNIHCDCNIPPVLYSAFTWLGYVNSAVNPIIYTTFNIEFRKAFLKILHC
Result: 5.71

----------
# tgt: UniProtKB Q9Y5N1
# Sequence (Q9Y5N1 whole entry): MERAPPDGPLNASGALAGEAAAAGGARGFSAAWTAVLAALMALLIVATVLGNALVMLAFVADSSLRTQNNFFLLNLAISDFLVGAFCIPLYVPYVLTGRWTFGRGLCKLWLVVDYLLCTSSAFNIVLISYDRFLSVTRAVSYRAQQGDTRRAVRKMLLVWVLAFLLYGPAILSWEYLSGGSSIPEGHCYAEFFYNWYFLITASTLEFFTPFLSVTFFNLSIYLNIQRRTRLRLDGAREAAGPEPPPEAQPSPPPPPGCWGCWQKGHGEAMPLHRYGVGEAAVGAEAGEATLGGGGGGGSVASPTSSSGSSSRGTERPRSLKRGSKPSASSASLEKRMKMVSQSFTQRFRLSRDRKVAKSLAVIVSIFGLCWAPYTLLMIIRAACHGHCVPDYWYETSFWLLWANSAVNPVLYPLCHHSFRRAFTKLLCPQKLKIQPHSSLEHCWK
# assay-remarks: Displacement of [3H]Nalpha-methylhistamine from human recombinant histamine H3 receptor expressed in HEK-293 cells
reported-endpoint: Ki (nM)
Numeric answer only, unit nM assumed.

Request: Notebook: pull reported Ki for UniProtKB Q9Y5N1, entry CC1=CC(C)=[N+]2C1=C(c1ccc(OCCCN3CCCCC3)cc1)c1c(C)cc(C)n1[B-]2(F)F
Result: 6.51
